- MEASUREMENT PROTOCOL: clinical
- Parameters: species or system human
- MEASUREMENT SETUP: male, human, in vivo, AUC48-72 (hr * pg/mL)
- Description: A multiple-dose, open-label, dose-escalation study was designed in which 12 healthy male subjects were scheduled to receive 1 of 2 treatments once daily for 3 days with an 11-day washout period between doses. The objective of this Phase 1 study was to assess the safety and pharmacokinetic (PK) profile of multiple dose administration of 0.25 g and 1.00 g of a 0.07% transdermal estradiol gel in healthy male volunteers. The transdermal gel used had the following formulation: […]

{"columns": ["MOLECULE", "AUC"],
 "data": [
  ["C[C@]12CC[C@@H]3c4ccc(O)cc4CC[C@H]3[C@@H]1CC[C@@H]2O [Estradiol, estradiol]", "0.477 ng·h/mL"]
]}

====

- MEASUREMENT PROTOCOL: clinical
- Design: species or system human
- MEASUREMENT SETUP: male, human, in vivo, Cmax-overall (pg/mL)

{"columns": ["INPUT SMILES", "RESULT UNIT", "Cmax"],
 "data": [
  ["C[C@]12CC[C@@H]3c4ccc(O)cc4CC[C@H]3[C@@H]1CC[C@@H]2O", "ng/mL", 0.0331]
]}

====

- MEASUREMENT PROTOCOL: clinical
- Design: species or system human
- MEASUREMENT SETUP: male, human, in vivo, AUC0-120 (hr * pg/mL)

{"columns": ["MOLECULE", "AUC(0-t) [ng·h/mL]"],
 "data": [
  ["C[C@]12CC[C@@H]3c4ccc(O)cc4CC[C@H]3[C@@H]1CC[C@@H]2O [Estradiol, estradiol]", 2.33]
]}

====

- MEASUREMENT PROTOCOL: clinical
- Set-up: species or system human
- MEASUREMENT SETUP: male, human, in vivo, AUC0-t (hr * pg/mL)
PARAMETER MEASURED: AUC(0-t) (ng·h/mL)

{"columns": ["INPUT SMILES", "RESULT NUMBER"],
 "data": [
  ["C[C@]12CC[C@@H]3c4ccc(O)cc4CC[C@H]3[C@@H]1CC[C@@H]2O", 3.78]
]}

====

- MEASUREMENT PROTOCOL: clinical
- Parameters: species or system human
- MEASUREMENT SETUP: male, human, in vivo, AUC0-24 (hr * pg/mL)
PARAMETER MEASURED: AUC(0-t) (ng·h/mL)

{"columns": ["COMPOUND", "RESULT NUMBER"],
 "data": [
  ["C[C@]12CC[C@@H]3c4ccc(O)cc4CC[C@H]3[C@@H]1CC[C@@H]2O [Estradiol, estradiol]", 0.477]
]}

====

- MEASUREMENT PROTOCOL: clinical
- Design: species or system human
- MEASUREMENT SETUP: male, human, in vivo, 0.25 g, third dosing interval; read-out: Estradiol Tmax after administration of the gel

{"columns": ["MOLECULE", "Tmax"],
 "data": [
  ["C[C@]12CC[C@@H]3c4ccc(O)cc4CC[C@H]3[C@@H]1CC[C@@H]2O [Estradiol, estradiol]", "~3 h"]
]}

====

- MEASUREMENT PROTOCOL: clinical
- Parameters: species or system human
- MEASUREMENT SETUP: male, human, in vivo, 0.25 g of 0.07% estradiol gel (Example 10) once daily for 3 days; healthy males; Mean, N 12; read-out: Tmax-overall
PARAMETER MEASURED: Tmax

{"columns": ["INPUT SMILES", "RESULT"],
 "data": [
  ["C[C@]12CC[C@@H]3c4ccc(O)cc4CC[C@H]3[C@@H]1CC[C@@H]2O", "54.8 h"]
]}

====

- MEASUREMENT PROTOCOL: clinical
- Parameters: species or system human
- MEASUREMENT SETUP: male, human, in vivo, 0.25 g, first dosing interval; read-out: Estradiol Tmax after administration of the gel

{"columns": ["INPUT SMILES", "Tmax"],
 "data": [
  ["C[C@]12CC[C@@H]3c4ccc(O)cc4CC[C@H]3[C@@H]1CC[C@@H]2O", "~13 h"]
]}
